Where do these numbers come from? They come from patent US20260347310A1.

- procedureDetails: Metabolic stability in human liver microsomes (HLM)
- Assay type: in vitro ADME
- studyConditions: human liver microsomes 0.50 mg/mL, NADPH 1 mM, test compound 1 μM, 37° C., pH 7.4, 60 min
I'd be grateful if you could share measured microsomal CLint at 1 µM for these entries.
Give bare numbers, in µL/min/mg.

CCCCCCc1cc(OC)c(C[C@H](N)CC)cc1OC    37
[2H]C([2H])([2H])CCCCCc1cc(OC)c(CC(N)CC)cc1OC (centres unmarked)    44.7

Task: Tell me the measured microsomal CLint at 1 µM of `CCCCCCc1cc(OC)c(C[C@@H](N)CC)cc1OC` , please.
Result: 70.2

* * *

- targetOfAssay: 5-HT2C receptor (Homo sapiens, UniProt P28335)
- Sequence (P28335 33-458): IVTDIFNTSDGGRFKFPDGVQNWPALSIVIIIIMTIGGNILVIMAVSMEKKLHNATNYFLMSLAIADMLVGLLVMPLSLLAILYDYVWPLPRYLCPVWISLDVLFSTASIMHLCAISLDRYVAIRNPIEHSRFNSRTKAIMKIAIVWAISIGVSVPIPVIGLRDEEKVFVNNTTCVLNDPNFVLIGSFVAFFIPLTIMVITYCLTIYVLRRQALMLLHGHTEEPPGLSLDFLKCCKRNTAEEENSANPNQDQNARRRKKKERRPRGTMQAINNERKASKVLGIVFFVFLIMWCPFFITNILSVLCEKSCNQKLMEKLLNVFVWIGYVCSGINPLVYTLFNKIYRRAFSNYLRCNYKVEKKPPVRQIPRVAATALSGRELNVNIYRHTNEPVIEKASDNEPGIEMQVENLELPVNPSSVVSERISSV
- procedureDetails: FLIPR Ca2+ flux functional agonist assay at 5-HT2C
- Type: cell-based
- Set-up: expressed in transfected cells
- Protocol: Disclosed compounds were tested for agonist activity at several serotonin receptor subtypes (5-HT2A, […], and 5-HT2C) using Ca^2+ flux functional assays, with the results summarized in Table 9. Test Compounds. Compounds were prepared as described above. Functional Assays at 5-HT2C. Agonist activity at 5-HT2C was determined using a FLIPR Ca^2+ flux assay at Eurofins DiscoverX (Fremont, CA) according to their standard protocols. […] Compound agonist activity was measured on a FLIPR Tetra (MDS). […]
reportedEndpoint: EC50 (nM)
Numbers only, in nM.

CCCCCCc1cc(OC)c(C[C@@H](N)CC)cc1OC [Compound 1S]    3130

Next compound, please.
Task: Tell me the measured EC50 of CCCCCCc1cc(OC)c(C[C@H](N)CC)cc1OC [Compound 1R] , please.
Result: 1190

* * *

- targetOfAssay: 5-HT2A receptor (Homo sapiens)
- procedureDetails: FLIPR Ca2+ flux functional agonist assay at 5-HT2A
- Assay type: cell-based
- Design: expressed in transfected cells; host or cells: HEK293
- studyConditions: HEK293, read-out: 5-HT2A % Act @ Max Dose
I'd be grateful if you could share measured Emax for these entries.
Provide a numeric answer, followed by its unit.

For each listed entry, give its Emax.
1. CCC(N)Cc1cc(OC)c(CCCCCC(F)(F)F)cc1OC (racemic)
2. CCC(N)Cc1cc(OC)c(CCCCC(C)(F)F)cc1OC (stereo not shown)
3. CCCCCCc1cc(OC)c(C[C@@H](N)CC)cc1OC
4. CCCCCCc1cc(OC)c(C[C@H](N)CC)cc1OC

Result:
["36.2%", "71.3%", "59.7%", "76.8%"]

* * *

- procedureDetails: Pharmacokinetics in plasma of rats after oral and intravenous dosing; oral bioavailability
- Assay type: in vivo, Sprague Dawley rats
- studyConditions: rat plasma, IV 2 mg/kg and PO 10 mg/kg, racemate, 10% captisol; read-out: F (absolute oral bioavailability)
reportedEndpoint: bioavailability (%)
Answers are plain numbers, in %.

Task: Tell me the measured bioavailability of CCCCCCc1cc(OC)c(CC(N)CC)cc1OC (racemic) , please.
Result: 8

* * *

- procedureDetails: Pharmacokinetics in plasma of rats after oral and intravenous dosing; oral bioavailability
- Assay type: in vivo, Sprague Dawley rats
- studyConditions: rat plasma, IV and PO 1 mg/kg, racemate, 10% DMSO and 90% normal saline; read-out: F (absolute oral bioavailability)
reportedEndpoint: bioavailability

Task: Tell me the measured bioavailability of CCC(N)Cc1cc(OC)c(CCCCCC(F)(F)F)cc1OC (racemic) , please.
Result: 28%

* * *

- procedureDetails: Pharmacokinetics in plasma of rats after oral and intravenous dosing; oral bioavailability
- Assay type: in vivo, Sprague Dawley rats
- studyConditions: rat plasma, IV 2 mg/kg, racemate, 10% captisol; read-out: t1/2 (iv) (converted)
- Protocol: The pharmacokinetics of disclosed compounds were determined in the plasma of rats after oral and intravenous dosing, with the results presented in Table 13. Animals. Male Sprague Dawley rats were used in these studies. […] Sample Collection and Bioanalysis. […] Following centrifugation, collected samples were analyzed using a fit-for-purpose LC-MS/MS method, with authentic samples of the analyte used for calibration and identification. […]
reportedEndpoint: half-life (h)
Give bare numbers, in h.

Task: Tell me the measured half-life of CCCCCCc1cc(OC)c(CC(N)CC)cc1OC (racemic) [Compound 1] , please.
Result: 2.16

* * *

- procedureDetails: Pharmacokinetics in plasma of rats after oral and intravenous dosing; oral bioavailability
- Type: in vivo, Sprague Dawley rats
- studyConditions: rat plasma, IV 1 mg/kg, racemate, 10% DMSO and 90% normal saline; read-out: t1/2 (iv) (converted)
reportedEndpoint: half-life (h)
One number for each entry, in h.

Task: Tell me the measured half-life of CCC(N)Cc1cc(OC)c(CCCCCC(F)(F)F)cc1OC (racemic) , please.
Result: 2.71

* * *

I'd be grateful if you could share measured half-life at 1 µM for these entries.
- procedureDetails: Metabolic stability in human liver microsomes (HLM)
- Assay type: in vitro ADME
- studyConditions: human liver microsomes 0.50 mg/mL, NADPH 1 mM, test compound 1 μM, 37° C., pH 7.4, 60 min

Completed entries (count: 4):
CCC(N)Cc1cc(OC)c(CCCCC(C)(F)F)cc1OC (centres unmarked)    > 145 min
CCCCCCc1cc(OC)c(C[C@H](N)CC)cc1OC    37.5 min
CCCCCCc1cc(OC)c(C[C@@H](N)CC)cc1OC    19.7 min
CCC(N)Cc1cc(OC)c(CCCCCC(F)(F)F)cc1OC (racemic)    > 145 min

Next compound, please.
Task: Tell me the measured half-life at 1 µM of [2H]C([2H])([2H])CCCCCc1cc(OC)c(CC(N)CC)cc1OC (centres unmarked) , please.
Result: 31 min

* * *

- procedureDetails: Pharmacokinetics in plasma of rats after oral and intravenous dosing; oral bioavailability
- Format: in vivo, Sprague Dawley rats
- studyConditions: rat plasma, IV 2 mg/kg, racemate, 10% captisol
reportedEndpoint: C0 (ng/mL)
Numbers only, in ng/mL.

Task: Tell me the measured C0 of CCCCCCc1cc(OC)c(CC(N)CC)cc1OC (racemic) , please.
Result: 389

* * *

- procedureDetails: Pharmacokinetics in plasma of rats after oral and intravenous dosing; oral bioavailability
- Assay type: in vivo, Sprague Dawley rats
- studyConditions: rat plasma, IV 1 mg/kg, racemate, 10% DMSO and 90% normal saline; read-out: AUC0-last (iv)
reportedEndpoint: AUC(0-t) (ng·h/mL)
Give bare numbers, in ng·h/mL.

Task: Tell me the measured AUC(0-t) of CCC(N)Cc1cc(OC)c(CCCCCC(F)(F)F)cc1OC (racemic) [Compound 2a] , please.
Result: 90

* * *

- targetOfAssay: 5-HT2B receptor (Homo sapiens)
- Sequence (P41595 whole entry): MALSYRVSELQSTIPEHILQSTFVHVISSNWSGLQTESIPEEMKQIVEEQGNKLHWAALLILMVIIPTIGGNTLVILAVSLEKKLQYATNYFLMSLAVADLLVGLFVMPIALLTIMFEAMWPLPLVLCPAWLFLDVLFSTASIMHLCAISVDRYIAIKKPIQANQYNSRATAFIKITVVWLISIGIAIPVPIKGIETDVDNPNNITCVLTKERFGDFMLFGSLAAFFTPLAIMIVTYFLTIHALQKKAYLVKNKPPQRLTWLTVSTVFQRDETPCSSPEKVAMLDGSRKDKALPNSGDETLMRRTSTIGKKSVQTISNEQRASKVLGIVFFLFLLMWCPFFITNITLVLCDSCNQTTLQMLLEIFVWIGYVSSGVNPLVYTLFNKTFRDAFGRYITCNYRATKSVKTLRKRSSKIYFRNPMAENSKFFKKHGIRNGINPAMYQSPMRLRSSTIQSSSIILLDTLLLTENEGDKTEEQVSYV
- procedureDetails: FLIPR Ca2+ flux functional agonist assay at 5-HT2B
I'd be grateful if you could share measured EC50 for these entries.

Completed entries (count: 2):
CCCCCCc1cc(OC)c(C[C@@H](N)CC)cc1OC    > 10 µM
CCC(N)Cc1cc(OC)c(CCCCCC(F)(F)F)cc1OC (racemic)    > 10 µM

Task: Tell me the measured EC50 of `CCCCCCc1cc(OC)c(C[C@H](N)CC)cc1OC` , please.
Result: > 10 µM

* * *

- targetOfAssay: 5-HT2A receptor (Homo sapiens, UniProt P28223)
- Sequence (P28223 whole entry): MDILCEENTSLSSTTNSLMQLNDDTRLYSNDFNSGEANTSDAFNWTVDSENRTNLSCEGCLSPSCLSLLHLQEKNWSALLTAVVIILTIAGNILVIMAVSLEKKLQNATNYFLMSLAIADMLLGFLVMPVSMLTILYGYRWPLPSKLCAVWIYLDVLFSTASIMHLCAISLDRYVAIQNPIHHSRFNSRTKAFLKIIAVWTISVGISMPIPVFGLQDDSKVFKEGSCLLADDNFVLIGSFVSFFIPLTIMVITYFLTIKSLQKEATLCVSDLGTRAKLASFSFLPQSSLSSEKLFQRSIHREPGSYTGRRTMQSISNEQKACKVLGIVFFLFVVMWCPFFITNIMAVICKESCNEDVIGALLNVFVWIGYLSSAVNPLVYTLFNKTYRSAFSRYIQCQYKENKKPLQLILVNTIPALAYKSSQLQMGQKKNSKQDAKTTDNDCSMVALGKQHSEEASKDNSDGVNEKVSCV
- procedureDetails: PathHunter beta-arrestin recruitment functional agonist assay at 5-HT2A
- Assay type: cell-based
- Set-up: expressed in transfected cells; host or cells: PathHunter cells (Eurofins DiscoverX)
I'd be grateful if you could share measured EC50 for these entries.
One number for each entry, in nM.

CCCCCCc1cc(OC)c(C[C@H](N)CC)cc1OC    6.23
CCCCCCc1cc(OC)c(C[C@@H](N)CC)cc1OC    7.85

Next molecule, please.
Task: Tell me the measured EC50 of CCC(N)Cc1cc(OC)c(CCCCCC(F)(F)F)cc1OC (racemic) , please.
Result: 33.2

* * *

- procedureDetails: Pharmacokinetics in plasma of rats after oral and intravenous dosing; oral bioavailability
- Assay type: in vivo, Sprague Dawley rats
- studyConditions: rat plasma, PO 10 mg/kg, racemate, 10% captisol, fasted
reportedEndpoint: Cmax

Task: Tell me the measured Cmax of CCCCCCc1cc(OC)c(CC(N)CC)cc1OC (racemic) , please.
Result: 35.1 ng/mL

* * *

- procedureDetails: Pharmacokinetics in plasma of rats after oral and intravenous dosing; oral bioavailability
- Format: in vivo, Sprague Dawley rats
- studyConditions: rat plasma, PO 1 mg/kg, racemate, 10% DMSO and 90% normal saline, fasted
reportedEndpoint: Cmax (ng/mL)
One number for each entry, in ng/mL.

Task: Tell me the measured Cmax of CCC(N)Cc1cc(OC)c(CCCCCC(F)(F)F)cc1OC (racemic) , please.
Result: 29.7

* * *

- procedureDetails: Metabolic stability in dog liver microsomes (DLM)
- Assay type: in vitro ADME, Beagle dogs
- studyConditions: dog liver microsomes 0.50 mg/mL, NADPH 1 mM, test compound 1 μM, 37° C., pH 7.4, 60 min
reportedEndpoint: half-life at 1 µM (min)
Give bare numbers, in min.

Completed entries (count: 4):
CCCCCCc1cc(OC)c(C[C@H](N)CC)cc1OC    11.3
CCC(N)Cc1cc(OC)c(CCCCC(C)(F)F)cc1OC (centres unmarked)    71.4
[2H]C([2H])([2H])CCCCCc1cc(OC)c(CC(N)CC)cc1OC (centres unmarked)    33.4
CCC(N)Cc1cc(OC)c(CCCCCC(F)(F)F)cc1OC (racemic)    71.3

Task: Tell me the measured half-life at 1 µM of `CCCCCCc1cc(OC)c(C[C@@H](N)CC)cc1OC` , please.
Result: 22.9
